Assay: Drug uptake in C57BL/6 WT mouse plasma at 5 mg/kg, sc and measured after 1 hrs
Type: ADME, organism-based
Conditions: C57BL/6, mouse
reported.property: concentration at 1 h (ng/mL)
Report only the number, with the unit ng/mL understood.

-- ask GET /values?readout=concentration at 1 h&item= `Cc1c(Nc2nc(N)c3c(C#N)c(N4CCC[C@H]4C)n(C)c3n2)cnn1[C@H]1CCOC1`
-- reply 440

====

Target: Leucine-rich repeat serine/threonine-protein kinase 2 (Homo sapiens)
Sequence (Q5S007 whole entry): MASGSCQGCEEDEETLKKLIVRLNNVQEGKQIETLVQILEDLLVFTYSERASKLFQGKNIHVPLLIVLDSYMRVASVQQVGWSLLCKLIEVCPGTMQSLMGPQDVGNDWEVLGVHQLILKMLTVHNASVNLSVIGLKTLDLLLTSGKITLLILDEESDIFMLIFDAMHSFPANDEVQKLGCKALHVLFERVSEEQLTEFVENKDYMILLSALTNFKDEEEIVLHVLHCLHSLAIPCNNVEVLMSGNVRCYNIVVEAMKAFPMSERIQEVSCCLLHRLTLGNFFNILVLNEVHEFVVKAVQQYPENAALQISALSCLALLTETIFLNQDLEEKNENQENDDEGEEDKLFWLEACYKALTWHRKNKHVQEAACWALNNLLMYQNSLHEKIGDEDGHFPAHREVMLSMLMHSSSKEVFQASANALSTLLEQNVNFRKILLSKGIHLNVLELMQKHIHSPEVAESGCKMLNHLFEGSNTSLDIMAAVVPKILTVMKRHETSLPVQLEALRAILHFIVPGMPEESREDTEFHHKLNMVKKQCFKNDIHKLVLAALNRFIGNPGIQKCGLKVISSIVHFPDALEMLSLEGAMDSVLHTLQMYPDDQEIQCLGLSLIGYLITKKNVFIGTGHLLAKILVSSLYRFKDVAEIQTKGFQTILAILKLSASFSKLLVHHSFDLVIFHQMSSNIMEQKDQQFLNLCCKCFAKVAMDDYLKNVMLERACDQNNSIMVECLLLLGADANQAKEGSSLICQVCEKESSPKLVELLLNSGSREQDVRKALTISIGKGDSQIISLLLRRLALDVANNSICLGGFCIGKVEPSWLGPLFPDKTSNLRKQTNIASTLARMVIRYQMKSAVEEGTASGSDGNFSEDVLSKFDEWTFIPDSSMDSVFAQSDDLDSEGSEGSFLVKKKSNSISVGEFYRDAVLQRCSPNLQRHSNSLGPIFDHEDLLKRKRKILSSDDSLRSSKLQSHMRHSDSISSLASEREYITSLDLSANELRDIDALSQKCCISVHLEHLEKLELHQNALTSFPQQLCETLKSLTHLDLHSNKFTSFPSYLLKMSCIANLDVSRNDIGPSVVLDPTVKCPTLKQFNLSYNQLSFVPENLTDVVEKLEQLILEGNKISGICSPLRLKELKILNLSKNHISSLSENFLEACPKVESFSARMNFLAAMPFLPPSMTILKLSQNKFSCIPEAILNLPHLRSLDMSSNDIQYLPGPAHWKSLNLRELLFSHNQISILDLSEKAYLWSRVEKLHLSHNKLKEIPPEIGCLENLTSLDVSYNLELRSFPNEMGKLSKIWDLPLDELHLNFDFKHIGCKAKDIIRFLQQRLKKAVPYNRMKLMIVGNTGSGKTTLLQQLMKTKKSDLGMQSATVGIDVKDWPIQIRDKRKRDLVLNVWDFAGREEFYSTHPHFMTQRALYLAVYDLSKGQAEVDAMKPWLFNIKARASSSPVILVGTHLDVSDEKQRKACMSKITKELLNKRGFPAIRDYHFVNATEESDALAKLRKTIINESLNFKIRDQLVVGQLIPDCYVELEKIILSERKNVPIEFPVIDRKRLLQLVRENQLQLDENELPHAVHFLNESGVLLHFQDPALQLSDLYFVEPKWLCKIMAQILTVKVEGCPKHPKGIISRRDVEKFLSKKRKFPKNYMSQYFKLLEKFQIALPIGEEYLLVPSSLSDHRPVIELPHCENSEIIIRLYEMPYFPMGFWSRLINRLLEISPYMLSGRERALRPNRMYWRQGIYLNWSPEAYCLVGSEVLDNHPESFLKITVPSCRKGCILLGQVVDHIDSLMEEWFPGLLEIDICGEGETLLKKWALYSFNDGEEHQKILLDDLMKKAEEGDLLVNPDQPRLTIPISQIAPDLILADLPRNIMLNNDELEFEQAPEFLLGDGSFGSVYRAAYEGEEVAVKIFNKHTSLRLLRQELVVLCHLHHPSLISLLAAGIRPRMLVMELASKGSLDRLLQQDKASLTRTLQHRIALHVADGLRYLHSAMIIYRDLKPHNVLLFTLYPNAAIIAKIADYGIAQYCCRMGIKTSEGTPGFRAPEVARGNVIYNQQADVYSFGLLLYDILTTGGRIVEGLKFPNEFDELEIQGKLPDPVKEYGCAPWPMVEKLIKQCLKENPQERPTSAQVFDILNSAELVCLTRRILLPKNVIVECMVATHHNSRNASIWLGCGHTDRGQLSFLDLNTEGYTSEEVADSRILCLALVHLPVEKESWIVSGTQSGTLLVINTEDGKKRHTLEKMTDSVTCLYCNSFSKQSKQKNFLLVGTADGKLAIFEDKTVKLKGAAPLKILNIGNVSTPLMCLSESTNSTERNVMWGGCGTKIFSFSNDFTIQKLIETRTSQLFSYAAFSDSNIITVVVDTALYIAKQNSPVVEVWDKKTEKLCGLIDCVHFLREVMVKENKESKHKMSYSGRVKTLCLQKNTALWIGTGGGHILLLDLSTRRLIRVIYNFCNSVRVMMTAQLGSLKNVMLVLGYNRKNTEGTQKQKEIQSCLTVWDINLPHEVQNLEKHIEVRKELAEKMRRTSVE
Test: Inhibition of LRRK2-pSer935 in LRRK2 WT expressing human HEK293 cells and measured after 48 hrs by ICW assay
Assay type: cell-based
reported.property: pIC50
Field pIC50 (float): negative decimal logarithm of the concentration in molar.

-- ask GET /values?readout=pIC50&item= `Cc1c(Nc2nc(N)c3c(C#N)c(N4CCC[C@H]4C)n(C)c3n2)cnn1CC1(O)COC1`
-- reply 6.66

-- ask GET /values?readout=pIC50&item= `Cc1nn(CC2(O)COC2)cc1Nc1nc(N)c2c(C#N)c(N3CCC[C@H]3C)n(C)c2n1`
-- reply 6.39

-- ask GET /values?readout=pIC50&item= `Cc1c(Nc2nc(N)c3c(C#N)c(N4CCC[C@H]4C)n(C)c3n2)cnn1C1COC1`
-- reply 6.52

-- ask GET /values?readout=pIC50&item= Cc1nn(C2CCOC2)cc1Nc1nc(N)c2c(C#N)c(N3CCC[C@H]3C)n(C)c2n1 (mixture of isomers)
-- reply 6.85

-- ask GET /values?readout=pIC50&item= `Cc1nn(C)cc1Nc1nc(N)c2c(C#N)c(N3CCC[C@H]3C)n(C)c2n1`
-- reply 6.72

-- ask GET /values?readout=pIC50&item= Cc1nn(C2CCOC2)cc1Nc1nc(N)c2c(C#N)c(N3CCC[C@H]3C)n(C)c2n1 (single isomer, unassigned)
-- reply 6.59

-- ask GET /values?readout=pIC50&item= `Cc1c(Nc2nc(N)c3c(C#N)c(N4CCC[C@H]4C)n(C)c3n2)cnn1[C@H]1CCOC1`
-- reply 6.85

-- ask GET /values?readout=pIC50&item= `Cc1nn(CC(C)(C)O)cc1Nc1nc(N)c2c(C#N)c(N3CCC[C@H]3C)n(C)c2n1`
-- reply 6.55

-- ask GET /values?readout=pIC50&item= `C[C@@H]1CCCN1c1c(C#N)c2c(N)nc(Nc3cn(C)nc3C(F)(F)F)nc2n1C`
-- reply 6.04

Values compiled from ChEMBL document CHEMBL5038598.
